# test_name: GastroPlus dog model
# run_parameters: dog, plasma, iv
measurement_label: clearance (mL/min/kg)
All answers are understood in mL/min/kg, so give the number only.

**Query** Request the reported clearance associated with C[C@H]1CN(C2COC2)CCN1c1ccc(Nc2cc(-c3ccnc(N4CCn5c(cc6c5CC(C)(C)C6)C4=O)c3CO)cn(C)c2=O)nc1
**Result** 6

---

# test_name: Physiochemical properties used for fenebrutinib
# run_parameters: pH 2.3
measurement_label: solubility (mg/mL)
All answers are understood in mg/mL, so give the number only.

**Query** Request the reported solubility associated with C[C@H]1CN(C2COC2)CCN1c1ccc(Nc2cc(-c3ccnc(N4CCn5c(cc6c5CC(C)(C)C6)C4=O)c3CO)cn(C)c2=O)nc1
**Result** 36

---

# test_name: Pharmacokinetic study in pentagastrin‐pretreated dogs with or without HP‐β‐CD
# Format: in vivo, dog
# run_parameters: male, beagle, dog, plasma, po, 100 mg, Cmax, 100 mg tablets, HP‐β‐CD 8 g
measurement_label: Cmax

**Query** Request the reported Cmax associated with C[C@H]1CN(C2COC2)CCN1c1ccc(Nc2cc(-c3ccnc(N4CCn5c(cc6c5CC(C)(C)C6)C4=O)c3CO)cn(C)c2=O)nc1
**Result** 447 ng/mL

---

# test_name: Pharmacokinetic study in pentagastrin‐pretreated dogs with or without HP‐β‐CD
# Assay type: in vivo, dog
# run_parameters: male, beagle, dog, plasma, po, 100 mg, Cmax, 100 mg tablets, HP‐β‐CD 0 g
measurement_label: Cmax (ng/mL)
All answers are understood in ng/mL, so give the number only.

**Query** Request the reported Cmax associated with C[C@H]1CN(C2COC2)CCN1c1ccc(Nc2cc(-c3ccnc(N4CCn5c(cc6c5CC(C)(C)C6)C4=O)c3CO)cn(C)c2=O)nc1
**Result** 3940

---

# test_name: Itraconazole clinical DDI study, fenebrutinib PK in healthy subjects
# Format: in vivo, human
# run_parameters: both, human, plasma, po, 100 mg
measurement_label: Cmax (ng/mL)
All answers are understood in ng/mL, so give the number only.

**Query** Request the reported Cmax associated with C[C@H]1CN(C2COC2)CCN1c1ccc(Nc2cc(-c3ccnc(N4CCn5c(cc6c5CC(C)(C)C6)C4=O)c3CO)cn(C)c2=O)nc1
**Result** 221

---

# test_name: Physiochemical properties used for fenebrutinib
# run_parameters: pH 7.8, aqueous buffer
measurement_label: solubility
Answer format: number, then unit.

**Query** Request the reported solubility associated with C[C@H]1CN(C2COC2)CCN1c1ccc(Nc2cc(-c3ccnc(N4CCn5c(cc6c5CC(C)(C)C6)C4=O)c3CO)cn(C)c2=O)nc1 [Fenebrutinib]
**Result** 0.1 µg/mL

---

# test_name: Pharmacokinetic study in pentagastrin‐pretreated dogs with or without HP‐β‐CD
# Format: in vivo, dog
# run_parameters: male, beagle, dog, plasma, po, 100 mg, Cmax, 100 mg tablets, HP‐β‐CD 0.8 g
measurement_label: Cmax (ng/mL)
All answers are understood in ng/mL, so give the number only.

**Query** Request the reported Cmax associated with C[C@H]1CN(C2COC2)CCN1c1ccc(Nc2cc(-c3ccnc(N4CCn5c(cc6c5CC(C)(C)C6)C4=O)c3CO)cn(C)c2=O)nc1 [Fenebrutinib]
**Result** 2090

---

# test_name: Physiochemical properties used for fenebrutinib
# run_parameters: pH 6.5, fassif
measurement_label: solubility (µg/mL)
All answers are understood in µg/mL, so give the number only.

**Query** Request the reported solubility associated with C[C@H]1CN(C2COC2)CCN1c1ccc(Nc2cc(-c3ccnc(N4CCn5c(cc6c5CC(C)(C)C6)C4=O)c3CO)cn(C)c2=O)nc1
**Result** 9
